# TARGET_SYSTEM: T1, full length human MSR1 with a C-terminal Myc tag, on HEK293.Myc.hMSR1 cells (human, UniProt P21757 1-451)
# T1 construct: whole, on cells; stably expressed on engineered HEK293 cells; not shown: C-terminal Myc tag
# T1 sequence (looked up): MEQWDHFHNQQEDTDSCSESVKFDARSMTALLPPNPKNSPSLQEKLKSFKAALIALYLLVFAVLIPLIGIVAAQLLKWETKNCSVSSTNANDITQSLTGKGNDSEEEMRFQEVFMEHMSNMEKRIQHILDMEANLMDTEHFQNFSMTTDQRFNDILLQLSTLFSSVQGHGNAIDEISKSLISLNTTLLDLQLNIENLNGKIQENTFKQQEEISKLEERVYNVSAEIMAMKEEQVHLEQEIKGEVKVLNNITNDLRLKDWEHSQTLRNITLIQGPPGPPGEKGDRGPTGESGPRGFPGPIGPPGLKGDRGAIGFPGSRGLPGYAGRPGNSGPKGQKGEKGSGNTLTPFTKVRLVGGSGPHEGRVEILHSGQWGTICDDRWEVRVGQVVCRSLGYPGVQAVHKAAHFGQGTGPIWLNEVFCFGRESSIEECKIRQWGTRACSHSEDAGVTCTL
# ASSAY_COMMENT: ECL cell binding, HEK293.Myc.hMSR1 cells, 11 nM
ENDPOINT_NAME: ratio of binding signal (RLU) to isotype control

BINDER	MEASURED
H2aM25695N (antibody, mouse IgG2a, V domains shown, mouse IgG2a Fc) VH: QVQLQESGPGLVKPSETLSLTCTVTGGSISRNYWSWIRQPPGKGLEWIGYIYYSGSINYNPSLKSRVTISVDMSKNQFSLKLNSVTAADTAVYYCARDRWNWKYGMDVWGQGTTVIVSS VL: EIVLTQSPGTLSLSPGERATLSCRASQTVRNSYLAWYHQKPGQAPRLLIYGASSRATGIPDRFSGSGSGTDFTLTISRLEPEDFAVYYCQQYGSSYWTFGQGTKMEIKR	35 fold
H1H21234N (antibody, human IgG1, V domains shown, original human IgG1 Fc) VH: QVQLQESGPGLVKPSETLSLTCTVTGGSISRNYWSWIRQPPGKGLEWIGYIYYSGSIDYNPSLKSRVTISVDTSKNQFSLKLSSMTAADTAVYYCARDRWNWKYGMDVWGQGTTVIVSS VL: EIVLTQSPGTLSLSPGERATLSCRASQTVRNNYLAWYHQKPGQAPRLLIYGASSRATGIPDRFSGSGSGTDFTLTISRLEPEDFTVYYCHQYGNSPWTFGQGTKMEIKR	32 fold
